B1: FBXO3 (parent)
chain: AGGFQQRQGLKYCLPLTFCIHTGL

- Variants of: B1
- METHOD NOTES: protein stability index of a GFP-peptide fusion (GPS, HEK-293T) (PSI 1-6); higher = more stable;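 further: lentivirally expressed fusions sorted by FACS into six bins by GFP to DsRed ratio, PSI derived from sequencing read proportions per bin multiplied by bin number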
- PROTOCOL CONDITIONS: c terminus: a fixed tail appended
Below: a set of entries, each annotated with reported protein stability index.

>  <MUTATION KEY>
Y12Q

>  <protein stability index>
3.79

$$$$
>  <MUTATION KEY>
K11G

>  <protein stability index>
3.61

$$$$
>  <MUTATION KEY>
Y12W

>  <protein stability index>
2.43

$$$$
>  <MUTATION KEY>
H21C

>  <protein stability index>
3.66

$$$$
>  <MUTATION KEY>
F4E

>  <protein stability index>
3.03

$$$$
>  <MUTATION KEY>
Q8F

>  <protein stability index>
2.59

$$$$
>  <MUTATION KEY>
L14R

>  <protein stability index>
2.88

$$$$
>  <MUTATION KEY>
G2S

>  <protein stability index>
3.13

$$$$
>  <MUTATION KEY>
Q6T

>  <protein stability index>
2.67

$$$$
>  <MUTATION KEY>
H21G

>  <protein stability index>
2.73

$$$$
>  <MUTATION KEY>
C13E

>  <protein stability index>
3.1

$$$$
>  <MUTATION KEY>
P15C

>  <protein stability index>
2.57

$$$$
>  <MUTATION KEY>
G3P

>  <protein stability index>
1.51

$$$$
>  <MUTATION KEY>
T22K

>  <protein stability index>
2.49

$$$$
>  <MUTATION KEY>
F4M

>  <protein stability index>
2.69

$$$$
